Attribute: TGI
- Test system: M19-MEL melanoma
- assayInfo: NCI tumour cell line growth inhibition, 48 h

molecule	TGI
O=C(NC12CC3CC(CC(C3)C1)C2)C(=O)c1c[nH]c2ccc([N+](=O)[O-])cc12	> 100 µM
O=c1cc(-c2ccccc2)nc(/C=C(\O)c2ccncc2)n1-c1ccccc1	> 100 µM
Cc1ccc(C(=O)N2CCN(C(=O)c3ccc(C)cc3)c3ccccc32)cc1	> 100 µM
CCCCCCCCC(O)C#CC(N)=O (stereo not drawn)	24.4 µM
O=C(NCCCCCCNC(=O)n1cc(F)c(=O)[nH]c1=O)NCCCOCCOCCOCCOCCOCCOCCOCCOCCOCCOCCOCCOCCOCCOCCOCCOCCOCCOCCOCCOCCOCCCNC(=O)C(O)C(O)C(OC1OC(CO)C(O)C(O)C1O)C(O)CO (stereo not drawn)	> 100 µM
O=C1C2CC=CCC2C(=O)C12CCc1ccccc12 (stereo not drawn)	> 100 µM
COC(=O)[C@@]12OC[C@]34C([C@@H](O)C1O)[C@@]1(C)CC(=O)C(O)=C(C)C1C[C@H]3OC(=O)[C@H](OC(=O)/C=C(/c1ccccc1)C(F)(F)F)[C@H]42 (stereo partly drawn)	11 µM
CC1=C(C(=O)Nc2ccc([N+](=O)[O-])cc2)C(c2ccccc2O)C(C(=O)Nc2ccc([N+](=O)[O-])cc2)=C(C)N1	64.4 µM

Each recorded value in this set is attributed to PubChem BioAssay (NCI).
